Molecular target: T1, CD3 epsilon homodimer protein (UniProt P07766 23-126)
T1 construct: also called CD3 (CD3 epsilon)
T1 sequence (P07766 23-126): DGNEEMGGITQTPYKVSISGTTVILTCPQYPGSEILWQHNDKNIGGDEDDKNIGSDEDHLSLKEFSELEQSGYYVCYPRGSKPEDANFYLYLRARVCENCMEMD
Experiment: SPR, antibody over immobilised CD3e homodimer;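 further: SPR at 25 °C with CD3 epsilon homodimer amine-coupled to a CM4 sensor chip and antibody flowed over as analyte in HBS-EP+ running buffer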
Metric: KD ratio to GLS3000
Lab note: jot the number down without any unit.

Binder	Value Measured
CE115HA000/GLS3000 H34K (antibody, IgG1, name in Kabat numbering, V domains shown, one-arm IgG1) VH: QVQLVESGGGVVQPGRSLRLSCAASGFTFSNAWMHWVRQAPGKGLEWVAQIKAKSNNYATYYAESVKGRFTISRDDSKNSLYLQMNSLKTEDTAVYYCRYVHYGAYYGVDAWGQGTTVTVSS VL: DIVMTQSPLSLPVTPGEPASISCRSSQSLVHSNRNTYLKWYQQKPGQAPRLLIYKVSNRFSGVPDRFSGSGSGTDFTLKISRVEAEDVGVYYCGQGTQVPYTFGQGTKLEIK	4.1

Proceed to the following item.
Please give the documented KD ratio to GLS3000 of CE115HA000/GLS3000 S56V (antibody, IgG1, name in Kabat numbering, V domains shown, one-arm IgG1) VH: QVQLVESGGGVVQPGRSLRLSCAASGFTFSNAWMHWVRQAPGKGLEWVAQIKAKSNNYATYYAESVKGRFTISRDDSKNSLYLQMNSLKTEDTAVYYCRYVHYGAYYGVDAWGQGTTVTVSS VL: DIVMTQSPLSLPVTPGEPASISCRSSQSLVHSNRNTYLHWYQQKPGQAPRLLIYKVSNRFVGVPDRFSGSGSGTDFTLKISRVEAEDVGVYYCGQGTQVPYTFGQGTKLEIK
0.94
